# assay_target: Flap endonuclease 1 (Homo sapiens)
# protocol_description: qHTS Assay for the Inhibitors of Human Flap endonuclease 1 (FEN1). Also: nearly all actives have a fitted effect of over 65% in size.
# condition_details: Recombinant FEN1 flap cleavage, fluorescence, 15 min; series mostly up to 114 µM
The whole screen tested about 390,000 compounds, of which about 1,400 (0.36%) were called active. Inconclusive results (about 2%) are left out. Calls follow the shape of the dose curve; as a rule, active = well fitted inhibition curve with a large enough effect; inconclusive = small, poorly fitted or top-dose-only effect; inactive = no such curve, though single readings can be large or run the other way. The list comes from a sample in which actives are over-represented; it also holds close analogues and randomly drawn compounds.
Bench note: report the call from active, inactive

INPUT: I'd appreciate the recorded outcome for N#Cc1ccc[n+](CC(=O)c2ccc(O)c(O)c2)c1 from this test.
OUTPUT: active

INPUT: Which outcome was assigned to CC1(C)CC(=O)c2cc(C(=O)NCc3ccccc3)c(=O)[nH]c2C1 in this test?
OUTPUT: inactive

INPUT: Hey, what did the test say about CCOc1ncccc1C(=O)NNC(=O)c1cccc(S(=O)(=O)Nc2ccccc2OC)c1 ?
OUTPUT: inactive

INPUT: Assay outcome for O=C(C[n+]1ccncc1)c1ccc2c(c1)CCCC2 : what was it?
OUTPUT: inactive

INPUT: Record lookup: outcome of this test for CCOc1n[nH]c(-c2ccccc2)n1 ?
OUTPUT: inactive

INPUT: # lookup: test call for Cn1cccc1/C=C1\SC(=S)N(NC(=O)c2ccc(Cl)cc2)C1=O
OUTPUT: inactive

INPUT: Please state the recorded outcome for this compound: CC1(OC(=O)C2CCCC2)C(=O)C=C2C=C(c3ccc(C#N)cc3)OC=C2C1=O (configuration not stated)
OUTPUT: active
